# test.target: T1, Recombinant OspAST1 (residues 18–273) from B. burgdorferi B31 (Borrelia burgdorferi B31 (OspA ST1), UniProt P0CL66)
# T1 construct: source: tags removed with TEV protease; not shown: deca-histidine, N-terminal, cleaved; SUMO, N-terminal, cleaved
# T1 sequence (P0CL66 18-273): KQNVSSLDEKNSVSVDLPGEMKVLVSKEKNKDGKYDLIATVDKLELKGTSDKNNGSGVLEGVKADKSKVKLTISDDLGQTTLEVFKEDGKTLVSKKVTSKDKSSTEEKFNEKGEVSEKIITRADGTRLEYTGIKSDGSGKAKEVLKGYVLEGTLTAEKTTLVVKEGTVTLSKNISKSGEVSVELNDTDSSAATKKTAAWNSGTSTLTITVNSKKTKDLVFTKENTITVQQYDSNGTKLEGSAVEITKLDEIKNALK
# procedure.text: BLI; Octet RED96e; mAb captured on AHC sensors (0.4 µg/mL, 5 min), dipped into non-lipidated OspA 21.58 nM to 0.089 nM (10 min), dissociation 30 min; 0.1% BSA in PBS, 0.01% Tween20; global 1:1 model
# conditions: both partners purified
# Kd per record follows
Dear colleague, please return just the value in nM, with no unit written.

| binder | Kd / nM |
| --- | --- |
| 227-2, recombinant human monoclonal IgG1 (antibody, V domains shown, source: Expi293 cells, transiently transfected with VH and VL plasmids, purified (Protein A)) VH: EVQVVQSGAEVKKPGESLKISCKGSGYSFTSYWIGWVRQMPGKGLEWMGIIYPGDSDTRYSPSFQGQVTISADKSISTAYLQWSSLKASDTAMYYCVRSISRSGPGYILSWFFDYWGQGSLVTVSS VL: AIQLTQSPSSLSASVGDRVTITCRASQGISNALAWYQQKPGKAPKLLIYDASSLERGVPSRFSGSGFGTDFTLTISSLQPEDFAIYYCQQFNGFPNTFGQGTRVEIK | 0.48 |

I'd like to know its Kd. The binder in question is 221-7, recombinant human monoclonal IgG1 (antibody, V domains shown, source: Expi293 cells, transiently transfected with VH and VL plasmids, purified (Protein A)) VH: EVQLVQSGSEVKKPGESLKISCQVSGYSFTSYWIGWVRQMPGKGLERVGFIYPGDSDTRYSPSFQGQVTISADKSISTAYLQWSSLKASDTAMYYCARGILRYFDWFLDYWGQGTLVTVSS VL: AIQLTQSPSSLSASVGDRVTITCRASQGISSGSAWYQQKPGKAPKLLIYDVSSLESGVPSRFSGSGSGTEFTLTISSLQPEDFATYYCQQFNSYLLTFGGGTKVEIK 0.66
